Assignment: determine reported binding signal for the given binders.
tested.system: dAsCas12a WT (Acidaminococcus sp., UniProt U2UMQ6 1-1307, D908A;E993A;D1235A)
experimental.details: Spec-seq (native PAGE EMSA with sequencing of bound and unbound); 25 mM Tris-HCl pH 7.4, 150 mM KCl, 5 mM MgCl2, 10% glycerol, 1 mM DTT, 40 ng/uL salmon sperm DNA; 400 nM Cas12a, 480 nM crRNA, 50 nM library, 37 C 1 h; native P; high values mean tight binding
Expressed in lnKA, but write only the number.

State, in one line, measured binding signal of TATC (dsDNA) DNA 1: GCTATCTAGTGCTCAGTACGCACTGTATCAGGAAACTTCTGGCAGGACCAGGTCATGAGATCGGAAGAGCACACGTCTGAACTCCAGTCA DNA 2: TGACTGGAGTTCAGACGTGTGCTCTTCCGATCTCATGACCTGGTCCTGCCAGAAGTTTCCTGATACAGTGCGTACTGAGCACTAGATAGC RNA: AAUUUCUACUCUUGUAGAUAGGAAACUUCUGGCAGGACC
-8.56

Identify binding signal associated with the binder TTGA (dsDNA) DNA 1: GCTATCTAGTGCTCAGTACGCACTGTTGAAGGAAACTTCTGGCAGGACCAGGTCATGAGATCGGAAGAGCACACGTCTGAACTCCAGTCA DNA 2: TGACTGGAGTTCAGACGTGTGCTCTTCCGATCTCATGACCTGGTCCTGCCAGAAGTTTCCTTCAACAGTGCGTACTGAGCACTAGATAGC RNA: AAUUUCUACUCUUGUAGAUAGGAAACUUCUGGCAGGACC
-8.14

Name the recorded binding signal of the item TTCT (dsDNA) DNA 1: GCTATCTAGTGCTCAGTACGCACTGTTCTAGGAAACTTCTGGCAGGACCAGGTCATGAGATCGGAAGAGCACACGTCTGAACTCCAGTCA DNA 2: TGACTGGAGTTCAGACGTGTGCTCTTCCGATCTCATGACCTGGTCCTGCCAGAAGTTTCCTAGAACAGTGCGTACTGAGCACTAGATAGC RNA: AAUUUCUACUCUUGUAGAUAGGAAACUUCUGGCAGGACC in your answer.
-8.65
